These entries and their values trace back to ChEMBL document CHEMBL3991601.

- study-target: Ribosyldihydronicotinamide dehydrogenase [quinone] (Homo sapiens); note: in the data inactive means no Kd found up to 30 µM
- Sequence (P16083 whole entry): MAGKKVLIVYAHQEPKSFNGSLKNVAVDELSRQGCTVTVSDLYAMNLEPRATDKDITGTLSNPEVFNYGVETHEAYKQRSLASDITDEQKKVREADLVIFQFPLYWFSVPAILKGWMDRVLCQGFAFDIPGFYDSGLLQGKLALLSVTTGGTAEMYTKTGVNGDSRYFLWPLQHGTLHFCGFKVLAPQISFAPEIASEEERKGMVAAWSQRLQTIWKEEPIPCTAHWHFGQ
Where a name gives a salt, the structure may show the parent alone. Active and inactive are the calls of the source.
Would you mind answering with one of these outcomes? yes (1) = active, no (0) = inactive

[in] Name the outcome recorded for `CC(C)(C)c1nc(-c2cccc(NS(=O)(=O)c3c(F)cccc3F)c2F)c(-c2ccnc(N)n2)s1` in the assay.
[out] no (0)

[in] Name the outcome recorded for `Cc1nc2cc(-n3ncc(C(=O)c4cc5ccccc5[nH]4)c3N)ccc2[nH]1` in the assay.
[out] no (0)

[in] Name the outcome recorded for `Cc1cc(C(=O)NOCCO)c(Nc2ccc(I)cc2F)n(C)c1=O` in the assay.
[out] no (0)

[in] Name the outcome recorded for CCS(=O)(=O)N1CCN(c2ccc(Nc3ncc(C(N)=O)c(NC4CC4)n3)cc2)CC1 [Cerdulatinib Hydrochloride] in the assay.
[out] no (0)

[in] Name the outcome recorded for `CCn1cc(-c2ccnc3[nH]c(-c4cccc(CN(C)C)c4)cc23)c(-c2ccc(NC(=O)N(C)C)cc2)n1` in the assay.
[out] no (0)
